Recorded relative viability by entry
# Test system: 621-103 (TSC2-rescued);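 further: immortalized renal angiomyolipoma cells stably carrying empty vector or TSC2, dosed in 384-well plates in DMEM, viability normalized to vehicle-treated wells within each plate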
# procedureDetails: relative viability vs DMSO; higher = less cytotoxic
# conditionSet: 0.0001 µM; serum: 10% FBS; 72 h
Structures can show the parent of a compound that is named as a salt.
Give your result in % as a bare value.

molecule="COc1ccc2c3n(c(=NC(=O)c4cccnc4)nc2c1OC)CCN3 [PIK-90]" metricname="relative viability" measurednumber=99

Answer with reported relative viability of `COc1cccc(-c2cc(=O)c3ccccc3o2)c1N`
100

Answer with reported relative viability of CN1C2CCCC1CC(NC(=O)c1nn(C)c3ccccc13)C2 (stereo not given) [Granisetron HCl]
106

Answer with reported relative viability of `CN(c1ncccc1CNc1nc(Nc2ccc3c(c2)CC(=O)N3)ncc1C(F)(F)F)S(C)(=O)=O`
106

Answer with reported relative viability of Nc1ccn([C@@H]2O[C@H](CO)[C@@H](O)[C@@H]2O)c(=O)n1 [Cytarabine (Cytosar-U)]
115
